pIC50 for assorted compounds
System: Ramos
Assay: Antiproliferative activity against human Ramos cells after 48 hrs by CCK-8 assay
Assay type: functional, cell-based
Remember, pIC50 is on a log scale: it is -log10 of the molar concentration.

Example cases with answers are listed next.
[
  {
    "COMPOUND": "C=CC(=O)Nc1cccc(Nc2nc(Nc3ccc(NC(=O)CN(CCOC)CCOC)cc3)ncc2F)c1",
    "pIC50": 4.45
  },
  {
    "COMPOUND": "C=CC(=O)N1CCC[C@@H](n2nc(-c3ccc(Oc4ccccc4)cc3)c3c(N)ncnc32)C1",
    "pIC50": 4.90
  },
  {
    "COMPOUND": "C=CC(=O)Nc1cccc(Nc2nc(Nc3ccc(NC(=O)CN(CCOC)CCOC)cc3)ncc2Cl)c1",
    "pIC50": 4.83
  },
  {
    "COMPOUND": "C=CC(=O)Nc1cccc(Nc2nc(Nc3ccc(N(CCOC)CCOC)cc3)ncc2Cl)c1",
    "pIC50": 4.89
  }
]

Let us move to another entry and its pIC50.
Query: Under Ramos: pIC50 value of C=CC(=O)Nc1cccc(Nc2nc(Nc3ccc(OCC4CCCO4)cc3)ncc2Cl)c1 (stereo not given) ?
Response: 4.98

====

# pIC50 per entry
System: Ramos
Assay: Antiproliferative activity against human Ramos cells after 48 hrs by CCK-8 assay
Assay type: functional, cell-based
Give only the number. pIC50 is defined as minus log10 of concentration in molar units.

Example entries begin here.
[
  {
    "COMPOUND": "C=CC(=O)Nc1cccc(Nc2nc(Nc3ccc(OCC(=O)N(CCOC)CCOC)c(Cl)c3)ncc2Cl)c1",
    "TARGET_ENTITY": "Ramos",
    "pIC50": 4.77
  },
  {
    "COMPOUND": "C=CC(=O)Nc1cccc(Nc2nc(Nc3ccc(NC(=O)CN(CCOC)CCOC)c(C)c3)ncc2Cl)c1",
    "TARGET_ENTITY": "Ramos",
    "pIC50": 4.71
  },
  {
    "COMPOUND": "C=CC(=O)Nc1cccc(Nc2nc(Nc3ccc(NC(=O)CN(CCOC)CCOC)c(OC)c3)ncc2Cl)c1",
    "TARGET_ENTITY": "Ramos",
    "pIC50": 4.96
  }
]

Query: Give the measured pIC50 of "C=CC(=O)Nc1cccc(Nc2nc(Nc3ccc(OCC(=O)N(CCOC)CCOC)cc3)ncc2Cl)c1" .
Response: 4.74

====

Target: Tyrosine-protein kinase BTK (Homo sapiens, UniProt Q06187)
Sequence (Q06187 whole entry): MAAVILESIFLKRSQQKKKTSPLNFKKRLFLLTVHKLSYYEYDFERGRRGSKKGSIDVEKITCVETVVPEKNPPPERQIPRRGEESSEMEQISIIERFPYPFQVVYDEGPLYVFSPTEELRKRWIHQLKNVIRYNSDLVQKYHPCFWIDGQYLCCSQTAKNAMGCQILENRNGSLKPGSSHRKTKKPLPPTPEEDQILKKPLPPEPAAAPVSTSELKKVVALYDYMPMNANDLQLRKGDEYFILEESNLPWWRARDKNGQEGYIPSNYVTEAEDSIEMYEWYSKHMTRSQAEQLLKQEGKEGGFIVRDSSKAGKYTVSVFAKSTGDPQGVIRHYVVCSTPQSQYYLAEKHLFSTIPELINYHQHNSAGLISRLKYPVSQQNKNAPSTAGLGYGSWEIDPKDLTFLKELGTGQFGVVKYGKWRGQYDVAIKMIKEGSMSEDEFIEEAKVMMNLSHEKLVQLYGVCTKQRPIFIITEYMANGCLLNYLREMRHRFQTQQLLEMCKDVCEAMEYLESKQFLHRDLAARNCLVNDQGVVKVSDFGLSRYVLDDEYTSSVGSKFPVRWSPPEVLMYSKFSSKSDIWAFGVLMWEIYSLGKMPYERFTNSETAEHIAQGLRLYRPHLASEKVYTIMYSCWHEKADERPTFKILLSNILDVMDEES
Experiment: Inhibition of N-terminal His-tagged full length human recombinant BTK expressed in baculovirus infected Sf9 insect cells using Poly (4:1 Glu, Tyr) peptide substrate incubated for 60 mins by ADP-Glo luminescence assay
RECORDED_METRIC: pIC50
pIC50 here: minus log base 10 of the concentration, concentration in moles per litre.

Consider the following illustrative entries.
[
  {
    "COMPOUND": "C=CC(=O)Nc1cccc(Nc2nc(Nc3ccc(NC(=O)CN(CCOC)CCOC)cc3)ncc2F)c1",
    "TARGET_ENTITY": "Tyrosine-protein kinase BTK (Homo sapiens, UniProt Q06187)",
    "pIC50": 7.04
  },
  {
    "COMPOUND": "C=CC(=O)Nc1cccc(Nc2nc(Nc3ccc(OCC(=O)N(CCOC)CCOC)cc3)ncc2F)c1",
    "TARGET_ENTITY": "Tyrosine-protein kinase BTK (Homo sapiens, UniProt Q06187)",
    "pIC50": 7.57
  }
]

Now consider a different compound.
Query: Which measured pIC50 belongs to C=CC(=O)Nc1cccc(Nc2nc(Nc3ccc(OCC(=O)OCC4CCCO4)cc3)ncc2Cl)c1 (stereo not drawn) , tested on Tyrosine-protein kinase BTK (Homo sapiens, UniProt Q06187)?
Response: 9.64
